Entry source: patent US10780174B2

# Test system: OVCAR3 cells
# assayExplanation: In vitro growth inhibition by LD-DTX prodrugs, cell viability assay
# Assay type: cell-based
# experimentalParameters: Homo sapiens, OVCAR-3, 48 h, PC-TO LNP, Ovcar3 cells
The entries below come with measured IC50 values attached.

>  <molecule>
CCCCCCCC/C=C\CCCCCCCC(=O)OCC(COC(=O)CCC(=O)O[C@@H](C(=O)O[C@H]1C[C@@]2(O)[C@@H](OC(=O)c3ccccc3)[C@@H]3[C@]4(OC(C)=O)CO[C@@H]4C[C@H](O)[C@@]3(C)C(=O)[C@H](O)C(=C1C)C2(C)C)[C@@H](NC(=O)OC(C)(C)C)c1ccccc1)OC(=O)CCCCCCC/C=C\CCCCCCCC (stereo partly shown)

>  <unitLabel>
nM

>  <IC50>
692

$$$$
>  <molecule>
CCCCCCCC/C=C\CCCCCCCCOC(=O)CCC(=O)O[C@@H](C(=O)O[C@H]1C[C@@]2(O)[C@@H](OC(=O)c3ccccc3)[C@@H]3[C@]4(OC(C)=O)CO[C@@H]4C[C@H](O)[C@@]3(C)C(=O)[C@H](O)C(=C1C)C2(C)C)[C@@H](NC(=O)OC(C)(C)C)c1ccccc1

>  <unitLabel>
nM

>  <IC50>
131

$$$$
>  <molecule>
CCCCC/C=C\C/C=C\CCCCCCCC(=O)OCC(COC(=O)CCC(=O)O[C@@H](C(=O)O[C@H]1C[C@@]2(O)[C@@H](OC(=O)c3ccccc3)[C@@H]3[C@]4(OC(C)=O)CO[C@@H]4C[C@H](O)[C@@]3(C)C(=O)[C@H](O)C(=C1C)C2(C)C)[C@@H](NC(=O)OC(C)(C)C)c1ccccc1)OC(=O)CCCCCCC/C=C\C/C=C\CCCCC (stereo partly shown)

>  <unitLabel>
nM

>  <IC50>
791

$$$$
>  <molecule>
CCCCCCCCCCCCCC(=O)OCC(COC(=O)CCC(=O)O[C@@H](C(=O)O[C@H]1C[C@@]2(O)[C@@H](OC(=O)c3ccccc3)[C@@H]3[C@]4(OC(C)=O)CO[C@@H]4C[C@H](O)[C@@]3(C)C(=O)[C@H](O)C(=C1C)C2(C)C)[C@@H](NC(=O)OC(C)(C)C)c1ccccc1)OC(=O)CCCCCCCCCCCCC (stereo partly shown)

>  <unitLabel>
nM

>  <IC50>
315

$$$$
